Would you kindly list self-splicing fitness (ln) for each of these sequences?
# procedure_summary: self-splicing fitness, log relative to wild type (ln ratio); higher = more splicing; Tetrahymena group I intron in knt gene, E. coli kanamycin selection, DiMSum; sequences stand for … in CUCUCU…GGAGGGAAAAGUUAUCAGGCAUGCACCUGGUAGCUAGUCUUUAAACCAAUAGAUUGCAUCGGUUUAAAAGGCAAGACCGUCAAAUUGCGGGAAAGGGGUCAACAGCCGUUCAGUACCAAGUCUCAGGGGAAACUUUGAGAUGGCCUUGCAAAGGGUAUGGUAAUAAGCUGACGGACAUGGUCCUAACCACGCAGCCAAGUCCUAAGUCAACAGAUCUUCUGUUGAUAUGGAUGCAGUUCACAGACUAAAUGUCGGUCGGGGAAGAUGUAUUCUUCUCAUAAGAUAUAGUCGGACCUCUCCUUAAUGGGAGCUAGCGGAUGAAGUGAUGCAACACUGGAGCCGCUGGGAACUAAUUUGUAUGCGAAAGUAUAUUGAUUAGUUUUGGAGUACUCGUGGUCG;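 also: selection with 25 µg/mL kanamycin versus none on LB agar overnight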
# experimental_parameters: 37 °C
Reply with just the number.

Return reported self-splicing fitness (ln); argument: GGGAAGCAAUAUUACGGCGU
-0.241

Please report the recorded self-splicing fitness (ln) for UUCUAGCAAUAUUACGAGUG .
0.118

Which value of self-splicing fitness (ln) has been reported for AAUAAGCAAUAUUACGCUAA in the records?
-0.891

Sample UAGAAGCAAUAUUACGUUGA — what was its self-splicing fitness (ln)?
-1.62

State the recorded self-splicing fitness (ln) for this entry: UAUAAGCAAUAUUACGGUGU
-1.34

Recorded self-splicing fitness (ln) of CUUCAGCAAUAUUACGCCAU , please.
-2.02

Bench note: what self-splicing fitness (ln) did GCGAAGCAAUAUUACGCUUC show?
-2.58

Give the measured self-splicing fitness (ln) of CUAAAGCAAUAUUACGAUAC .
-2.32
